Biological target: mGluR5 (Homo sapiens (Human))
Sequence (P41594 21-1212): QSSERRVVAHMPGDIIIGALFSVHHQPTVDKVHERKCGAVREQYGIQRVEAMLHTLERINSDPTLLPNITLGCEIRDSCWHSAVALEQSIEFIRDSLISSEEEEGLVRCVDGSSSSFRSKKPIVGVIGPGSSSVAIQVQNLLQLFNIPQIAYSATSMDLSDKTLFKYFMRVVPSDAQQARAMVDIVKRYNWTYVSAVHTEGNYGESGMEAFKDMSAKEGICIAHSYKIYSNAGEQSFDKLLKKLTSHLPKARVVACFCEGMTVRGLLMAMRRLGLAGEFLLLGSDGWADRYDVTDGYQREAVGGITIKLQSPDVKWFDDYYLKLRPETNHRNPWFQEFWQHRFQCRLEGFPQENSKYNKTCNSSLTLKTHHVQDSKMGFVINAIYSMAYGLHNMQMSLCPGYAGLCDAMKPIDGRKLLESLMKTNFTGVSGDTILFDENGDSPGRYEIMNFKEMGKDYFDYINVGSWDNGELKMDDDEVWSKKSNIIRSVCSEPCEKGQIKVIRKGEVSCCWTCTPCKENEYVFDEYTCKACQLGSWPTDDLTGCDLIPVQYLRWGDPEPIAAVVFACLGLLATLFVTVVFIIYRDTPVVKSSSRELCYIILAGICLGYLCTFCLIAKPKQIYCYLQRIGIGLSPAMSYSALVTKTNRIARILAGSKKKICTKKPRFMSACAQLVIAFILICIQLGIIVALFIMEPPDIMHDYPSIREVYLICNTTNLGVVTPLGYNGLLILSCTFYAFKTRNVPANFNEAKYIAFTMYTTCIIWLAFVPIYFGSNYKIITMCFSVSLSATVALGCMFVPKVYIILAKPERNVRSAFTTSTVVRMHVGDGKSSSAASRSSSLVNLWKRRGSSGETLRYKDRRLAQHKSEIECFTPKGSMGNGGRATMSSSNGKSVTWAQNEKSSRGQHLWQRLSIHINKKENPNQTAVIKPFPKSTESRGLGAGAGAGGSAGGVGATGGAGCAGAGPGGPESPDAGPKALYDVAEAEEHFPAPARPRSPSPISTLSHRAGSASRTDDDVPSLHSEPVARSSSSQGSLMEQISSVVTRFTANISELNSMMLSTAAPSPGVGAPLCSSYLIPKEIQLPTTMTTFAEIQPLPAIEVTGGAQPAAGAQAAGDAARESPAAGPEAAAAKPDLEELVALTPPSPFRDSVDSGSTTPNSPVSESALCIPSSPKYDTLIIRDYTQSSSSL
Experiment: PDSP primary binding assay and secondary assay
Settings: secondary or functional assay
Parameter Measured: Ki

Requested read-out: Ki. Entry: O=C(O)c1cccnc1Nc1c(Cl)ccc(OCc2ccccc2)c1Cl
> 10 µM

// returns reported Ki for input O=C(O)c1ccccc1Nc1c(Cl)ccc(OCc2ccccc2)c1Cl [AK3-99B]
> 10 µM

###

Biological target: 5-HT1A (Homo sapiens (Human))
Sequence (P08908 whole entry, species assumed): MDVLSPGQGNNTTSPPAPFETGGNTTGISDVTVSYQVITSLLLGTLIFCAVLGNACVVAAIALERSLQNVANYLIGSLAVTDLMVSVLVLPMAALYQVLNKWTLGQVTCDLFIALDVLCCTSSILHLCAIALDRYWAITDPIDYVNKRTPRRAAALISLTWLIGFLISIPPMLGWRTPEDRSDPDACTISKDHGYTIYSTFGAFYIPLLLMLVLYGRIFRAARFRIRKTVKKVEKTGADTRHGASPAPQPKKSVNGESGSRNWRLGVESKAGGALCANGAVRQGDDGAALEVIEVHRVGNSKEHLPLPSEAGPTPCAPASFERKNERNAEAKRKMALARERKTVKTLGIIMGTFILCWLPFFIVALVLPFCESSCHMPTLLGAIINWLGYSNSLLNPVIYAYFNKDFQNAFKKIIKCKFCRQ
Test: PDSP primary binding assay and secondary assay
Conditions: secondary or functional assay
Method: Two exemplary compounds, FA44 and FA26, were screened against a panel of CNS receptors, transporters, and ion channels to examine specificity for CLC-2 in the brain. A comprehensive primary binding assay screen was performed through the NIH Psychoactive Drug Screening Program (PDSP) at UNC-Chapel Hill. Secondary or functional assays were performed for compounds showing >50% activity in the primary assay.
pKi: −log10 of the molar value.
What pKi was measured for each of the following?

Recorded pKi of O=C(O)c1cccnc1Nc1c(Cl)ccc(OCc2ccccc2)c1Cl , please.
< 5.00

So what's the measured pKi for this one? O=C(O)c1ccccc1Nc1c(Cl)ccc(OCc2ccccc2)c1Cl [AK3-99B]
< 5.00

###

Molecular target: mGluR8 (Homo sapiens (Human), UniProt O00222)
Sequence (O00222 34-908, species assumed): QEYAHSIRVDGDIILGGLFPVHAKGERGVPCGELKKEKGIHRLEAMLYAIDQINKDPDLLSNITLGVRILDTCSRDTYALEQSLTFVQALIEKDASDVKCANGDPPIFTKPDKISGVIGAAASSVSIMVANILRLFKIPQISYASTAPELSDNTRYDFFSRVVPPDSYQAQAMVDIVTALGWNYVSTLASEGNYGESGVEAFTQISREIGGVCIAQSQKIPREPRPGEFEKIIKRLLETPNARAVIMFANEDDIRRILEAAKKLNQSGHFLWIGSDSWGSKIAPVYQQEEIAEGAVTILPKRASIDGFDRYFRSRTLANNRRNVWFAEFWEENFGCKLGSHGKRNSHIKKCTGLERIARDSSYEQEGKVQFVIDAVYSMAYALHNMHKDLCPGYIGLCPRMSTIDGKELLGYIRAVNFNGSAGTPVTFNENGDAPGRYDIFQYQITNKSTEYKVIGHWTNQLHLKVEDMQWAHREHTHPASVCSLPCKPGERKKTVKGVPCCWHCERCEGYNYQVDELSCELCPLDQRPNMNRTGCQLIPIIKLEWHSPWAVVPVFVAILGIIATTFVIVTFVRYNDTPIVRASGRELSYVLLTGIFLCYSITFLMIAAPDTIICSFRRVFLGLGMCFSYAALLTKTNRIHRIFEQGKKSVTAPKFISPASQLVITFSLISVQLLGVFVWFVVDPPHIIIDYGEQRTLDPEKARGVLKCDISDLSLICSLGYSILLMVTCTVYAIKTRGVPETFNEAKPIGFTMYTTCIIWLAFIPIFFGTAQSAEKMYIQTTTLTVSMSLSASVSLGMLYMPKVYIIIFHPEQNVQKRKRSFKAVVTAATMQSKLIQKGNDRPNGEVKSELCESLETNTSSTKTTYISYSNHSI
Experiment: PDSP functional assay
Details: only a functional assay was performed
Parameter Measured: Ki

Short answer please: Ki, mGluR8 (Homo sapiens (Human), UniProt O00222), entry O=C(O)c1ccccc1Nc1c(Cl)ccc(OCc2ccccc2)c1Cl [AK3-99B]
> 10 µM

###

Biological target: CLC-2 (Homo sapiens (Human))
Experiment: IonWorks Barracuda automated patch-clamp electrophysiology, human CLC-2 cell line
Format: cell-based
Settings: n = 4 cells, four concentrations of each compound; IonWorks Barracuda; read-out: IC50 (μM) against CLC-2
Parameter Measured: IC50 (µM)
Dear colleague, please return just the value in µM, with no unit written.

Fill blank: measured IC50 of the compound O=C(O)c1ccccc1Nc1c(Cl)ccc(C(F)(F)F)c1Cl [AK2-270A] is ____.
35.7

Dear colleague, I am looking for the recorded IC50 of the following compound: O=C(O)c1ccccc1COc1ccc(Cl)c(Nc2ccccc2C(=O)O)c1Cl [AK3-250]
67.8

IC50 lookup needed for O=C(O)c1ccccc1Nc1c(Cl)ccc(OCc2ccccc2)c1Cl [AK3-99B] , thanks.
0.62

###

Target: CLC-2 (Homo sapiens (Human))
Assay: IonWorks Barracuda automated patch-clamp electrophysiology, human CLC-2 cell line
Type: cell-based
Conditions: n = 4 cells, four concentrations of each compound; IonWorks Barracuda; read-out: IC50 (μM) against CLC-2
From the text: FIG. 8, panels A and B depict graphically the Selectivity between CLC-1 and CLC-2. […]
Kindly supply the reported IC50 values for the records listed here.
Report only the number, with the unit µM understood.

Report IC50 for O=C(O)c1ccccc1Nc1c(Cl)ccc(OCCc2ccccc2)c1Cl [EEGI-060] please.
7.32

What value of IC50 has been recorded for this entry: O=C(O)c1ccccc1Nc1c(Cl)ccc(O)c1Cl [AK3-102A]
3.6

Need IC50, item O=C(O)c1ccccc1Nc1c(Cl)ccc(-c2ccccc2)c1Cl [AK3-100A]
12.6

Quick check: IC50 of COCOc1ccc(Cl)c(Nc2ccccc2C(=O)O)c1Cl [AK3-99A] ?
2.04

Could you tell me which IC50 is on file for CCc1cccc(CC)c1Nc1ccccc1C(=O)O [AK3-97C] ?
86.3

###

Molecular target: CLC-2 (Homo sapiens (Human), UniProt P51788)
Sequence (P51788 whole entry): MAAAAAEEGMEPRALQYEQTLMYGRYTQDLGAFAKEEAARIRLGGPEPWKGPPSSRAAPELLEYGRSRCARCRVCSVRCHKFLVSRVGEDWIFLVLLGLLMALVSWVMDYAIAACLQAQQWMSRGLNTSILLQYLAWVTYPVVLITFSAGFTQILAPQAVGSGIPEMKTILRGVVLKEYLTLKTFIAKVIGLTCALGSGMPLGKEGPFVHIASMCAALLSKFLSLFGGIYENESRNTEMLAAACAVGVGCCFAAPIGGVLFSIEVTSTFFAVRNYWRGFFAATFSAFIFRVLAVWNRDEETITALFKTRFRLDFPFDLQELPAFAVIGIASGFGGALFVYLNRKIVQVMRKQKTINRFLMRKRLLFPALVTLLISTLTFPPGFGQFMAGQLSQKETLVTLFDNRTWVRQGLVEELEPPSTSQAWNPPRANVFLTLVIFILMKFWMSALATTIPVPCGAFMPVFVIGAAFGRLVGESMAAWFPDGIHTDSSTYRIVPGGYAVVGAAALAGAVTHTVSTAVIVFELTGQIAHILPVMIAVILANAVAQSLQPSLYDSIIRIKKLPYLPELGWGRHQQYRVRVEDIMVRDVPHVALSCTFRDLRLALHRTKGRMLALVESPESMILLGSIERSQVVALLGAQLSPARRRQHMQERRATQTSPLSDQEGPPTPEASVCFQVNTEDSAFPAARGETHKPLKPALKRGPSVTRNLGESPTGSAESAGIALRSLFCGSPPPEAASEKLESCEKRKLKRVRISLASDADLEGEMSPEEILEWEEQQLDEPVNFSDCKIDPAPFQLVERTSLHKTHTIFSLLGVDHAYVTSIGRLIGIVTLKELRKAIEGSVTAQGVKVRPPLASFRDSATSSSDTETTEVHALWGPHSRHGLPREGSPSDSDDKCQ
Experiment: IonWorks Barracuda automated patch-clamp electrophysiology, human CLC-2 cell line
Format: cell-based
Conditions: n = 4 cells, four concentrations of each compound; IonWorks Barracuda; read-out: IC50 (μM) against CLC-2
For each of the molecules below, state its IC50.

Item under review: Cc1ccc(Cl)c(Nc2cccnc2C(=O)O)c1Cl [AK3-107A] . Reported IC50?
> 222 µM

Please look up its IC50: O=C(O)c1ccc(COc2ccc(Cl)c(Nc3ccccc3C(=O)O)c2Cl)cc1
> 120 µM

Record request: IC50 value, item Cc1ccc(Cl)c(Nc2cnccc2C(=O)O)c1Cl [AK3-108A]
115 µM

# query: IC50 of entry Cc1ccc(Cl)c(Nc2ccccc2C(=O)O)c1 [AK2-214A]
> 120 µM

###

Molecular target: CLC-2 (Homo sapiens (Human))
Test: IonWorks Barracuda automated patch-clamp electrophysiology, human CLC-2 cell line
Assay type: cell-based
Conditions: n = 4 cells, four concentrations of each compound; IonWorks Barracuda; read-out: IC50 (μM) against CLC-2
For each entry below, report its IC50 value.

Please report the recorded IC50 for Cc1ccc(Cl)c(Nc2ccccc2C(N)=O)c1Cl [AK3-124] .
42.4 µM

Sample Cc1ccc(Cl)c(Nc2ccncc2C(=O)O)c1Cl [AK3-107B] — what was its IC50?
> 42 µM

Which IC50 is listed for O=C(O)c1cccnc1Nc1cccc(C(F)(F)F)c1 [NFA, reference compound] ?
> 120 µM

I have this compound here, O=C(O)c1ccccc1Nc1ccc(Cl)c(Cl)c1 [AK2-200B] , and I need its recorded IC50.
> 120 µM

Consider the compound shown here: O=C(CCCC[C@@H]1SC[C@@H]2NC(=O)N[C@@H]21)NCCOCCOCCOCCOCCC(=O)NCCOc1ccc(Cl)c(Nc2ccccc2C(=O)O)c1Cl [AK3-294] What is its recorded IC50?
77.1 µM

State the recorded IC50 for this entry: NCCOc1ccc(Cl)c(Nc2ccccc2C(=O)O)c1Cl [AK3-296]
> 120 µM

Look at this compound and give its reported IC50. O=C(O)c1ccccc1Nc1ccc(Cl)cc1Cl [AK2-200A]
> 120 µM

Given O=C(O)c1cccnc1Nc1c(Cl)ccc(OCc2ccccc2)c1Cl [AK3-238] , state its recorded IC50.
< 0.12 µM

May I ask what IC50 has been recorded for O=C(O)c1ccccc1Nc1c(Cl)cc(Cl)cc1Cl [AK2-214B] ?
> 120 µM

Looking for the measured IC50 of Cc1ccc(Cl)c2[nH]c3c(C(=O)O)ccc(F)c3c12 [AK3-98B] , can you help?
> 69 µM

###

Target: M4 (Homo sapiens (Human))
Sequence (P08173 whole entry): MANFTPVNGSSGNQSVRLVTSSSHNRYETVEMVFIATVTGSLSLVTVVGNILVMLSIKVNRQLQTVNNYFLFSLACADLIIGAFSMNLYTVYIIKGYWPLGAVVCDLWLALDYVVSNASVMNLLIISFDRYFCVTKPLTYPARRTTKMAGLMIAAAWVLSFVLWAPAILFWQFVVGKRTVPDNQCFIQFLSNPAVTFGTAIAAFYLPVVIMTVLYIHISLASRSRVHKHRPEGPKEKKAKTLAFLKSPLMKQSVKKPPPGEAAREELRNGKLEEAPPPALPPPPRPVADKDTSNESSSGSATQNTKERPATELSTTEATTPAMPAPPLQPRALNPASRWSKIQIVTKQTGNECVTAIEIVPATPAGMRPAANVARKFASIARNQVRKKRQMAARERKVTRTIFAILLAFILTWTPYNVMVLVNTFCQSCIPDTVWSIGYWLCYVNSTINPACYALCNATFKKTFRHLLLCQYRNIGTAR
Experiment: PDSP primary binding assay and secondary assay
Settings: secondary or functional assay
Parameter Measured: Ki

Dear colleague, I am looking for the recorded Ki of the following compound: O=C(O)c1cccnc1Nc1c(Cl)ccc(OCc2ccccc2)c1Cl
> 5 µM

###

Target: UniProt:P08913
Sequence (P08913 whole entry): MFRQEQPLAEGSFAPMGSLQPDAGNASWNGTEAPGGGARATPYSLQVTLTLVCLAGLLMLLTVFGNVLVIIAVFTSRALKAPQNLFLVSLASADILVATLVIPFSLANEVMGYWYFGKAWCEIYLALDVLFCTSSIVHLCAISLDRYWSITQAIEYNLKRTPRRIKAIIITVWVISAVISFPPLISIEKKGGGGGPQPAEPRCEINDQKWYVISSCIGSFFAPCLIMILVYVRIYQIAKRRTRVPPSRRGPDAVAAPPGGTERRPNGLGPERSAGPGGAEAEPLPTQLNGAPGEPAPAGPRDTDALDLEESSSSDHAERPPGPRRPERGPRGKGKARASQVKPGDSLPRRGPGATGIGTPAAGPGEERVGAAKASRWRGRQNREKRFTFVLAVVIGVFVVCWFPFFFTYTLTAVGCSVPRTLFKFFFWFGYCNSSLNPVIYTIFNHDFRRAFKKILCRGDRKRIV
Assay: PDSP primary binding assay and secondary assay
Settings: secondary or functional assay
Parameter Measured: pKi
Would you please state pKi, meaning minus log10 of the concentration in mol/L, as a bare number?

Dear colleague, I am looking for the recorded pKi of the following compound: O=C(O)c1ccccc1Nc1c(Cl)ccc(OCc2ccccc2)c1Cl [AK3-99B]
5.52

###

Biological target: CLC-2 (Homo sapiens (Human), UniProt P51788)
Assay: IonWorks Barracuda automated patch-clamp electrophysiology, human CLC-2 cell line
Assay type: cell-based
Settings: n = 4 cells, four concentrations of each compound; IonWorks Barracuda; read-out: IC50 (μM) against CLC-2
Parameter Measured: IC50

Return reported IC50; argument: NC(=O)c1cccc(COc2ccc(Cl)c(Nc3ccccc3C(=O)O)c2Cl)c1 [AK3-226]
> 120 µM

Would you kindly share the measured IC50 for O=C(O)c1cccc2c1[nH]c1c(Cl)ccc(OCc3ccccc3)c12 [AK3-251] ?
> 120 µM

Dear colleague, I am looking for the recorded IC50 of the following molecule: Cc1ccc(Cl)c(Nc2ccccc2OS(=O)(=O)O)c1Cl [AK2-262]
> 120 µM

May I ask what IC50 has been recorded for O=C(O)c1ccccc1Nc1c(F)cccc1F [AK2-214C] ?
> 120 µM

Recorded IC50 for O=C(O)c1ccccc1Nc1ccccc1 [DPC, reference compound] , please?
> 312 µM
